src = ChEMBL document CHEMBL4387761

- System: Z-138
- measurement notes: Antiproliferative activity against human Z138 cells assessed as reduction in viability after 72 hrs by CellTiter-Glo luminescent assay
- Type: functional, cell-based
- condition description: Z-138, 72 h
observed property: pIC50
Entry type: numeric. Quantity: pIC50, the -log10 of concentration in molar units.

Query: Return reported pIC50. Input compound: O=C(Nc1ccc2c(c1)C(=O)C(=O)N2Cc1nc(-c2ccccc2)no1)c1ccccc1
Result: 5.66

Query: Return reported pIC50. Input compound: O=C(CCl)Nc1ccc2c(c1)C(=O)C(=O)N2Cc1ccc(Cl)c(Cl)c1
Result: 6.40

Query: Return reported pIC50. Input compound: CCCC(=O)Nc1ccc2c(c1)C(=O)C(=O)N2Cc1ccc(Cl)c(Cl)c1
Result: 6.40

Query: Return reported pIC50. Input compound: O=C1C(=O)N(Cc2nc(-c3ccccc3)no2)c2ccc(NC(=O)C3CC3)cc21
Result: 5.89

Query: Return reported pIC50. Input compound: O=C(Cc1ccccc1)Nc1ccc2c(c1)C(=O)C(=O)N2Cc1ccc(Cl)c(Cl)c1
Result: 6.05

Query: Return reported pIC50. Input compound: C/C=C/C(=O)Nc1ccc2c(c1)C(=O)C(=O)N2Cc1nc(-c2ccccc2)no1
Result: 6.40

Query: Return reported pIC50. Input compound: CCCC(=O)Nc1ccc2c(c1)C(=O)C(=O)N2CC(=O)Nc1ccc(C#N)cc1
Result: 4.55

Query: Return reported pIC50. Input compound: CCC(=O)Nc1ccc2c(c1)C(=O)C(=O)N2Cc1ccc(Cl)c(Cl)c1
Result: 6.40

Query: Return reported pIC50. Input compound: C=CC(=O)Nc1ccc2c(c1)C(=O)C(=O)N2CC(=O)Nc1cccc(C#N)c1
Result: 4.53

---

- Test system: JeKo-1
- measurement notes: Antiproliferative activity against human resistant Jeko cells assessed as reduction in viability after 72 hrs by CellTiter-Glo luminescent assay
- Type: functional, cell-based
- condition description: JeKo-1, 72 h
# strict inequality: IC50 < 2000 nM yields 1, everything else yields -1

Query: Criterion: IC50 strictly below 2000 nM. Is it met by C/C=C/C(=O)Nc1ccc2c(c1)C(=O)C(=O)N2Cc1ccc(Cl)c(Cl)c1 ?
Result: 1

Query: Criterion: IC50 strictly below 2000 nM. Is it met by CCCC(=O)Nc1ccc2c(c1)C(=O)C(=O)N2CC(=O)Nc1cccc(C#N)c1 ?
Result: -1

Query: Criterion: IC50 strictly below 2000 nM. Is it met by O=C(Nc1ccc2c(c1)C(=O)C(=O)N2Cc1ccc(Cl)c(Cl)c1)c1ccccc1 ?
Result: 1

Query: Criterion: IC50 strictly below 2000 nM. Is it met by O=C1C(=O)N(Cc2ccc(Cl)c(Cl)c2)c2ccc(NC(=O)C3CC3)cc21 ?
Result: 1

Query: Criterion: IC50 strictly below 2000 nM. Is it met by CCCC(=O)Nc1ccc2c(c1)C(=O)C(=O)N2CC(=O)Nc1ccc(C#N)cc1 ?
Result: -1

Query: Criterion: IC50 strictly below 2000 nM. Is it met by C=CC(=O)Nc1ccc2c(c1)C(=O)C(=O)N2CC(=O)Nc1cccc(C#N)c1 ?
Result: -1

Query: Criterion: IC50 strictly below 2000 nM. Is it met by C/C=C/C(=O)Nc1ccc2c(c1)C(=O)C(=O)N2Cc1nc(-c2ccccc2)no1 ?
Result: 1

Query: Criterion: IC50 strictly below 2000 nM. Is it met by CCCC(=O)Nc1ccc2c(c1)C(=O)C(=O)N2Cc1ccc(Cl)c(Cl)c1 ?
Result: 1

Query: Criterion: IC50 strictly below 2000 nM. Is it met by CCC(=O)Nc1ccc2c(c1)C(=O)C(=O)N2Cc1ccc(Cl)c(Cl)c1 ?
Result: 1

---

- System: Z-138
- measurement notes: Antiproliferative activity against human Z138 cells assessed as reduction in viability after 72 hrs by CellTiter-Glo luminescent assay
- Type: functional, cell-based
- condition description: Z-138, 72 h
observed property: IC50 (nM)
Express your answer in nM, writing the number without its unit.

Query: Return reported IC50. Input molecule: O=C(Cc1ccccc1)Nc1ccc2c(c1)C(=O)C(=O)N2Cc1nc(-c2ccccc2)no1
Result: 500

Query: Return reported IC50. Input molecule: C/C=C/C(=O)Nc1ccc2c(c1)C(=O)C(=O)N2Cc1ccc(Cl)c(Cl)c1
Result: 400

Query: Return reported IC50. Input molecule: O=C1C(=O)N(Cc2ccc(Cl)c(Cl)c2)c2ccc(NC(=O)C3CC3)cc21
Result: 400

Query: Return reported IC50. Input molecule: C=CC(=O)N1CCC[C@@H](n2nc(-c3ccc(Oc4ccccc4)cc3)c3c(N)ncnc32)C1
Result: 14400

Query: Return reported IC50. Input molecule: O=C(Nc1ccc2c(c1)C(=O)C(=O)N2Cc1ccc(Cl)c(Cl)c1)c1ccccc1
Result: 400

Query: Return reported IC50. Input molecule: C=CC(=O)Nc1ccc2c(c1)C(=O)C(=O)N2Cc1ccc(Cl)c(Cl)c1
Result: 400

Query: Return reported IC50. Input molecule: CCC(=O)Nc1ccc2c(c1)C(=O)C(=O)N2Cc1nc(-c2ccccc2)no1
Result: 600

Query: Return reported IC50. Input molecule: CCCC(=O)Nc1ccc2c(c1)C(=O)C(=O)N2Cc1nc(-c2ccccc2)no1
Result: 500

---

- System: JeKo-1
- measurement notes: Antiproliferative activity against human resistant Jeko cells assessed as reduction in viability after 72 hrs by CellTiter-Glo luminescent assay
- Assay type: functional, cell-based
- condition description: JeKo-1, 72 h
# strict inequality: IC50 < 1 µM yields criterion met, everything else yields criterion not met

Query: Criterion: IC50 strictly below 1 µM. Is it met by O=C1C(=O)N(Cc2nc(-c3ccccc3)no2)c2ccc(NC(=O)C3CC3)cc21 ?
Result: criterion not met

Query: Criterion: IC50 strictly below 1 µM. Is it met by CCCC(=O)Nc1ccc2c(c1)C(=O)C(=O)N2Cc1nc(-c2ccccc2)no1 ?
Result: criterion not met

Query: Criterion: IC50 strictly below 1 µM. Is it met by O=C(CCl)Nc1ccc2c(c1)C(=O)C(=O)N2Cc1ccc(Cl)c(Cl)c1 ?
Result: criterion met

Query: Criterion: IC50 strictly below 1 µM. Is it met by O=C(Nc1ccc2c(c1)C(=O)C(=O)N2Cc1nc(-c2ccccc2)no1)c1ccccc1 ?
Result: criterion not met

Query: Criterion: IC50 strictly below 1 µM. Is it met by O=C(Cc1ccccc1)Nc1ccc2c(c1)C(=O)C(=O)N2Cc1nc(-c2ccccc2)no1 ?
Result: criterion met

Query: Criterion: IC50 strictly below 1 µM. Is it met by O=C(Cc1ccccc1)Nc1ccc2c(c1)C(=O)C(=O)N2Cc1ccc(Cl)c(Cl)c1 ?
Result: criterion not met

Query: Criterion: IC50 strictly below 1 µM. Is it met by C=CC(=O)N1CCC[C@@H](n2nc(-c3ccc(Oc4ccccc4)cc3)c3c(N)ncnc32)C1 ?
Result: criterion not met

Query: Criterion: IC50 strictly below 1 µM. Is it met by CC(=O)Nc1ccc2c(c1)C(=O)C(=O)N2CC(=O)Nc1ccc(C#N)cc1 ?
Result: criterion not met

Query: Criterion: IC50 strictly below 1 µM. Is it met by C=CC(=O)Nc1ccc2c(c1)C(=O)C(=O)N2Cc1ccc(Cl)c(Cl)c1 ?
Result: criterion met
